molecular target: EGFR (Homo sapiens (Human)); assay: HTRF KinEASE-TK kinase assay, EGFR; type: biochemical; conditions: 1 μM compound, 3 h preincubation; read-out: % EGFR Remaining activity vs DMSO (1 μM, 3 h)
Sequence (P00533 25-1210): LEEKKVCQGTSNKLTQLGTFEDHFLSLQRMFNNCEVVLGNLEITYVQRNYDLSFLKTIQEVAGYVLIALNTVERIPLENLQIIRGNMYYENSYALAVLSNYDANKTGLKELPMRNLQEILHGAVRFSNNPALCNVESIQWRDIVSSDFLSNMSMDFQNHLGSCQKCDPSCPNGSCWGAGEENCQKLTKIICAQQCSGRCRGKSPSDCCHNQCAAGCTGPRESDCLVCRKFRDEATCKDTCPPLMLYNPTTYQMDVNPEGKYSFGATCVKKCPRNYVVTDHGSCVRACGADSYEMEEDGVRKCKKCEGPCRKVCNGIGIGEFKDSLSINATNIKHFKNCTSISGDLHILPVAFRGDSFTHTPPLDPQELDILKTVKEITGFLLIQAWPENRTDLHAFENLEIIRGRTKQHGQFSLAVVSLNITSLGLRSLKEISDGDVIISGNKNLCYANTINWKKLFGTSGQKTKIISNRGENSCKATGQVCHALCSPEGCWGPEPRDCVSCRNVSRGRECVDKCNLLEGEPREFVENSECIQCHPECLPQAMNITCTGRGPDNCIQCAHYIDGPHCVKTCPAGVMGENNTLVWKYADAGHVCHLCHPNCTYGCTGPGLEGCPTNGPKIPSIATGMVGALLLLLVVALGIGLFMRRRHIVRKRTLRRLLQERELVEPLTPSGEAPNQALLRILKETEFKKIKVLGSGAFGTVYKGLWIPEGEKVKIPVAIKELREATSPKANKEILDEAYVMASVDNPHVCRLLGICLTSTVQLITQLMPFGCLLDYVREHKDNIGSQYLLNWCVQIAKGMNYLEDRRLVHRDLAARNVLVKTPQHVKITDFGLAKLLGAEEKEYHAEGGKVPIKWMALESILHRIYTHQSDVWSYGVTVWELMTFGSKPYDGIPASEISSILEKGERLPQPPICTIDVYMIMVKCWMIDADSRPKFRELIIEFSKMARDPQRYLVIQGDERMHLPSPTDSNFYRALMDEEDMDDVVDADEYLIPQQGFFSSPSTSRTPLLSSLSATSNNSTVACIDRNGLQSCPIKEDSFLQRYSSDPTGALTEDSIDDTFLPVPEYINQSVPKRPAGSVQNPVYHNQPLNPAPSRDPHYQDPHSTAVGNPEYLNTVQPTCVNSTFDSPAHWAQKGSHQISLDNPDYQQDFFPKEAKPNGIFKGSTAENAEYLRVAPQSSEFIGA
PROPERTY_LABEL: remaining activity at 1 µM

INSERT INTO measurements (compound, test_result) VALUES
  ('CN(CCn1nc(-c2ccc(Oc3ccccc3)cc2)c2c(N)ncnc21)C(=O)c1c(F)c(F)c(F)c(F)c1S(=O)(=O)N(C)C', '> 90%');

Query string: Can you share its remaining activity at 1 µM? I mean this compound: "Nc1ncnc2c1c(-c1ccc(Oc3ccccc3)cc1)nn2CCNS(=O)(=O)c1c(F)c(F)c(F)c(F)c1C(F)F"
Result string: > 90%

Query string: Can you share its remaining activity at 1 µM? I mean this compound: "CS(=O)(=O)c1c(F)c(F)c(F)c(F)c1C(=O)NCCn1nc(-c2ccc(Oc3ccccc3)cc2)c2c(N)ncnc21"
Result string: < 50%

Query string: Can you share its remaining activity at 1 µM? I mean this compound: "NS(=O)(=O)c1c(F)c(F)c(F)c(F)c1C(=O)NCCNc1ncnc2[nH]ccc12"
Result string: > 90%

Query string: Can you share its remaining activity at 1 µM? I mean this compound: "CN(C)S(=O)(=O)c1c(F)c(F)c(F)c(F)c1C(=O)NCCCn1nc(-c2ccc(Oc3ccccc3)cc2)c2c(N)ncnc21"
Result string: < 50%

Query string: Can you share its remaining activity at 1 µM? I mean this compound: "CS(=O)(=O)c1c(F)c(F)c(F)c(F)c1C(=O)n1ccc2c(N)ncnc21"
Result string: > 90%

Query string: Can you share its remaining activity at 1 µM? I mean this compound: Nc1ncnc2c1c(-c1ccc(Oc3ccccc3)cc1)nn2C1CCN(S(=O)(=O)c2c(F)c(F)c(F)c(F)c2OC(F)F)C1 (stereo in doubt)
Result string: > 90%

Query string: Can you share its remaining activity at 1 µM? I mean this compound: "CN(C)S(=O)(=O)c1c(F)c(F)c(F)c(F)c1C(=O)N1CCC[C@@H](n2nc(-c3ccc(Oc4ccccc4)cc3)c3c(N)ncnc32)C1"
Result string: > 90%

Query string: Can you share its remaining activity at 1 µM? I mean this compound: "CS(=O)(=O)c1c(F)c(F)c(F)c(F)c1CNCCn1nc(-c2ccc(Oc3ccccc3)cc2)c2c(N)ncnc21"
Result string: > 90%

Query string: Can you share its remaining activity at 1 µM? I mean this compound: "CN(CCn1nc(-c2ccc(Oc3ccccc3)cc2)c2c(N)ncnc21)C(=O)c1c(F)c(F)c(F)c(F)c1S(C)(=O)=O"
Result string: < 50%

Where do the numbers come from? From patent US20240018153A1.
